- system.tested: Na/K-ATPase/Src receptor complex (Sus scrofa)
- Construct: The α1 Na/K-ATPase was purified from pig kidney; tissue Upstate Biotechnology (Src only); host or cells: pig kidney (Na/K-ATPase)
- experimental.protocol: FRET based high throughput screen for agonists and antagonists
- Type: biochemical, pig
- measurement.setup: screen with ouabain plus compounds, followed by cell-based analyses
value.kind: identification as antagonist of receptor Na/K-ATPase/Src complex (ouabain antagonist)

O=C(O)[C@H](O)Cc1ccc(O)c(O)c1 [danshensu]
identified
Cc1coc2c1C(=O)C(=O)c1c-2ccc2c(C)cccc12 [tanshinone I]
identified
Cc1coc2c1C(=O)C(=O)c1c-2ccc2c1CCCC2(C)C [tanshinone IIA]
identified
